FYI, the data here is from patent US20240343803A1.

Target: T1, full-length human TIGIT on CHO-K1 cells (CHO-K1 human TIGIT) (human, UniProt Q495A1 22-244)
T1 construct: NCBI XP_024309156.1; entry includes the signal peptide; also called high expression strain 1D2; medium expression strain 2D10
T1 sequence: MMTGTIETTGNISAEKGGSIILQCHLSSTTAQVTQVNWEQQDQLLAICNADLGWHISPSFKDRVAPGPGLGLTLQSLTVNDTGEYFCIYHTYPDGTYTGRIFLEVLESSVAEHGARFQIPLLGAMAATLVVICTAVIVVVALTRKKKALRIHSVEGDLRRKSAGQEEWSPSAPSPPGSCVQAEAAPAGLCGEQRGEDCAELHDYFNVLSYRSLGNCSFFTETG
Test: FACS, high expression strain
REPORTED_PROPERTY: EC50 (nM)
Supply the numeric figure in nM, leaving out any unit text.

Some entries whose results are on file:
# BINDER, EC50 (nM)
rows = [
    ("TIGIT-CHI-002 (antibody, V domains shown, human-mouse chimeric antibody) VH: EVQLQESGPGLAKPSQTLSLACSVTGYSITSDSWNWIRKFPGNKLEYMGYISYSGNTYYNPSLKSRISITRDTSKNQFYLQLNSVTTEDTATYYCARLDFSNYGGAVDYWGQGTSVTVSS VL: DIVMTQSHTFMSTSVGDRVSITCKASQNVRTAVAWYQQKPGQSPKLMIYSASYRYTGVPDRFTGSGSGTDFTFTISSVQAEDLAVYYCQQYYTTPWTFGGGAKLEIQ", 0.299),
    ("TIGIT-CHI-006 (antibody, V domains shown, human-mouse chimeric antibody) VH: EVQLQESGPGLAKPSQTPSLTCSVTGYSMTSDYWNWIRKFPGNKLEYMGYISYSGRTYYNPSLKSRISITRDTSKNQFYLQLNSVTTEDTATYYCARGDYSNYGGAMYDWGQGTSVTVSS VL: DIVMTQSHKFMSTSVGDRVSITCRASQGVSTTIAWYQQKPGQSPKLLIYSASYRYTGVPDRFTGSGSGTDFTFTISGVQAEDLAVYYCQQYYSSPFTFGGGTKLEIK", 0.502),
]

API: the following record is the query input.
Given the binder TIGIT-CHI-070 (antibody, V domains shown, human-mouse chimeric antibody) VH: QVQLQQPGTELVKPGASVKLSCRASGYTFTNYYMHWVKQRPGRGLEWIGRIDPDSGGSKYNEKFKSKATLTVDKLSSTAYMQLSSLTSEDSAVYYCAREGHYGFYSDYWGQGTTLTVSS VL: DIQMTQSPASLSASVGETVTITCRVSENIYSYLAWYQQKQGKSPQLLVYNAKTLAEGVPSRFSGSGSGTQFSLKINSLQPEDFGNYYCQHHYGNPLTFGAGTKLDLK , what is its reported EC50? 0.517
